target: T1, AFP158/HLA-A*02:01 complex (human); assay: SPR, crude scFv captured, pMHC analyte;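 note: complex injected at several concentrations over the chip, association phase then running buffer for dissociation, KD derived from on- and off-rates computed from both curves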
T1 construct: flowed as analyte in SPR
PROPERTY: kon (M⁻¹ s⁻¹)
Give your result in M⁻¹ s⁻¹ as a bare value.

Task item: // kon lookup, key: AS170036 VL1VH1 (scFv, Crude scFv from E. coli TG1 supernatant; also called AS170036 VL1VH1 scFv) scFv: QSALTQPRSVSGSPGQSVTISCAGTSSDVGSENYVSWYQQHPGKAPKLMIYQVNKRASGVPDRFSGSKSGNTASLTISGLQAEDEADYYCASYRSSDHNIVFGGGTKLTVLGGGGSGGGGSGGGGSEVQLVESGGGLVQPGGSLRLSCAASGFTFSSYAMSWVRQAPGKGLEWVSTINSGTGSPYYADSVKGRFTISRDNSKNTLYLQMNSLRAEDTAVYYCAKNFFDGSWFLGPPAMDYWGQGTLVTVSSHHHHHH
Reply: 490000

Task item: // kon lookup, key: AS170036 VL1VH1-56Y98F108S (scFv, also called 42-AS170036 VL1VH1-56Y98F108S) scFv: QSALTQPRSVSGSPGQSVTISCAGTSSDVGSENYVSWYQQHPGKAPKLMIYQVNKRASGVPDRFSGSKSGNTASLTISGLQAEDEADYYCASYRSSDFNIVFGGGTKLTVLGGGGSGGGGSGGGGSEVQLVESGGGLVQPGGSLRLSCAASGFTFSSYAMSWVRQAPGKGLEWVSTINSGTYSPYYADSVKGRFTISRDNSKNTLYLQMNSLRAEDTAVYYCAKNFFDGSWFLSPPAMDYWGQGTLVTVSSHHHHHH
Reply: 190000
